- Test system: Haemophilus influenzae 76
- procedureSummary: MIC, standard agar-dilution assay
- Type: cell-based
Recorded measurements of MIC, one per entry

Take a look at these entries with their results.
[
  {
    "compound": "CCCCCNC1(C)CC(OC2c3ccc(cc3)Oc3cc4cc(c3OC3OC(CO)C(O)C(O)C3O)Oc3ccc(cc3Cl)C(O)C(NC(=O)C(CC(C)C)NC)C(=O)NC(CC(N)=O)C(=O)NC4C(=O)NC3C(=O)NC2C(=O)NC(C(=O)O)c2cc(O)cc(O)c2-c2cc3ccc2O)OC(C)C1O (stereo not drawn)",
    "resultType": "MIC",
    "reportedMeasurement": "> 128 mg/L"
  },
  {
    "compound": "CNC(CC(C)C)C(=O)NC1C(=O)NC(CC(N)=O)C(=O)NC2C(=O)NC3C(=O)NC(C(=O)NC(C(=O)O)c4cc(O)cc(O)c4-c4cc3ccc4O)C(OC3CC(C)(NCc4ccc(F)cc4)C(O)C(C)O3)c3ccc(c(Cl)c3)Oc3cc2cc(c3OC2OC(CO)C(O)C(O)C2OC2CC(C)(N)C(O)C(C)O2)Oc2ccc(cc2Cl)C1O (stereo not drawn)",
    "resultType": "MIC",
    "reportedMeasurement": "> 128 mg/L"
  },
  {
    "compound": "CCCCCCC(=O)N[C@@]1(C)C[C@H](O[C@H]2[C@H](Oc3c4cc5cc3Oc3ccc(cc3Cl)[C@@H](O)[C@@H](NC(=O)[C@@H](CC(C)C)NC)C(=O)N[C@@H](CC(N)=O)C(=O)N[C@H]5C(=O)N[C@H]3C(=O)N[C@H](C(=O)N[C@H](C(=O)O)c5cc(O)cc(O)c5-c5cc3ccc5O)[C@H](O[C@H]3C[C@](C)(N)[C@@H](O)[C@H](C)O3)c3ccc(cc3)O4)O[C@H](CO)[C@@H](O)[C@@H]2O)O[C@@H](C)[C@@H]1O",
    "resultType": "MIC",
    "reportedMeasurement": "> 128 mg/L"
  },
  {
    "compound": "CN[C@H](CC(C)C)C(=O)N[C@H]1C(=O)N[C@@H](CC(N)=O)C(=O)N[C@H]2C(=O)N[C@H]3C(=O)N[C@H](C(=O)N[C@H](C(=O)O)c4cc(O)cc(O)c4-c4cc3ccc4O)[C@H](O[C@H]3C[C@](C)(N)[C@@H](O)[C@H](C)O3)c3ccc(cc3)Oc3cc2cc(c3O[C@@H]2O[C@H](CO)[C@@H](O)[C@H](O)[C@H]2O[C@H]2C[C@](C)(NCc3ccc(Br)cc3)[C@@H](O)[C@H](C)O2)Oc2ccc(cc2Cl)[C@H]1O",
    "resultType": "MIC",
    "reportedMeasurement": "> 128 mg/L"
  },
  {
    "compound": "CN[C@H](CC(C)C)C(=O)N[C@H]1C(=O)N[C@@H](CC(N)=O)C(=O)N[C@H]2C(=O)N[C@H]3C(=O)N[C@H](C(=O)N[C@H](C(=O)O)c4cc(O)cc(O)c4-c4cc3ccc4O)[C@H](O[C@H]3C[C@](C)(NCc4ccc(Cl)cc4)[C@@H](O)[C@H](C)O3)c3ccc(cc3)Oc3cc2cc(c3O[C@@H]2O[C@H](CO)[C@@H](O)[C@H](O)[C@H]2O[C@H]2C[C@](C)(NCc3ccc(Cl)cc3)[C@@H](O)[C@H](C)O2)Oc2ccc(cc2Cl)[C@H]1O",
    "resultType": "MIC",
    "reportedMeasurement": "> 128 mg/L"
  }
]

Now take the following compound into account.
stdin: # return recorded MIC for input CNC(CC(C)C)C(=O)NC1C(=O)NC(CC(N)=O)C(=O)NC2C(=O)NC3C(=O)NC(C(=O)NC(C(=O)O)c4cc(O)cc(O)c4-c4cc3ccc4O)C(OC3CC(C)(NCc4ccccc4)C(O)C(C)O3)c3ccc(cc3)Oc3cc2cc(c3O)Oc2ccc(cc2Cl)C1O (stereo not drawn)
stdout: > 64 mg/L
